# ASSAY_SYSTEM: recombinant full-length human prolyl endopeptidase (PREP) (Homo sapiens)
# Construct: To recombinant full-length human prolyl endopeptidase (PREP, R&D-Systems, 4308-SE); purchased R&D-Systems 4308-SE
# Sequence (P48147 1-710): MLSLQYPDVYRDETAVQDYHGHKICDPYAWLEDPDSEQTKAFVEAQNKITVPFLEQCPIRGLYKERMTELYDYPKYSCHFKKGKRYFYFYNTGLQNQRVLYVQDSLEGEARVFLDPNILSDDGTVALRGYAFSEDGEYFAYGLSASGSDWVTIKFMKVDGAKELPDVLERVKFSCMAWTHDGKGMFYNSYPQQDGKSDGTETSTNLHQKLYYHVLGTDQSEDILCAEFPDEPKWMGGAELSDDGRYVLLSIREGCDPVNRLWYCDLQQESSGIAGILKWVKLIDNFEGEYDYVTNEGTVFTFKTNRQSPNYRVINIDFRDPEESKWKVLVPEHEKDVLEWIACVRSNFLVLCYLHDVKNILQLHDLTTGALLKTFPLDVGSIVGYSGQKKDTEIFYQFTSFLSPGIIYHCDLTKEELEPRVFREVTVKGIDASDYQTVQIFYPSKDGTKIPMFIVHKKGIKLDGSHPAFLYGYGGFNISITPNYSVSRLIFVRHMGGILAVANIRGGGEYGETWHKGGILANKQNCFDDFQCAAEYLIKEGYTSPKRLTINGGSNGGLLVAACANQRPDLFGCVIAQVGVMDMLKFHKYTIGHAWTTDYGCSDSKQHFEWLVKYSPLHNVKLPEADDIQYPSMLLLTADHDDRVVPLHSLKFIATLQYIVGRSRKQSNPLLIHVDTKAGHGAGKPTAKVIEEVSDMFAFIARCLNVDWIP
# EXPERIMENT: Biochemical human prolyl endopeptidase (PREP) assay with fluorescently labelled substrate
# RUN_CONDITIONS: substrate Z-Gly-Pro-AMC 50 μM, 32° C., 60 min; some as mean values from multiple independent determinations
pIC50: −log10 of the molar value.
REPORTED_ENDPOINT: pIC50

// solved cases for pIC50 follow
Cc1ccc(Cn2nc3n(c2=O)C(C(=O)N2CC(F)(F)C2)CCC3)cc1 (racemic) [Example 114] :: 8.71
Cc1ccc(C2(Cn3nc4n(c3=O)[C@H](C(=O)N3CC[C@H](F)C3)CCC4)CC2)cc1 [Example 526] :: 9.42
O=C([C@@H]1CCCc2nn(Cc3ccnc(C(F)(F)F)c3F)c(=O)n21)N1CC2CC1C2 [Example 187] :: 6.99

I. CS(=O)(=O)c1ccc(Cn2nc3n(c2=O)C(C(=O)N2CCCC2)CCC3)cc1 (racemic) [Example 6]
II. O=C([C@@H]1CCCc2nn(Cc3cccc(C(F)(F)F)n3)c(=O)n21)N1CC(F)C1 [Example 369]
III. O=C([C@@H]1CCCc2nn(Cc3cc(C(F)(F)F)nc4ccccc34)c(=O)n21)N1CCCC1 [Example 76]
Rank by pIC50 (largest to smallest). The reply should contain the labels ordered as requested.
III, II, I

====

# ASSAY_SYSTEM: recombinant full-length human prolyl endopeptidase (PREP) (Homo sapiens)
# Construct: To recombinant full-length human prolyl endopeptidase (PREP, R&D-Systems, 4308-SE)
# EXPERIMENT: Biochemical human prolyl endopeptidase (PREP) assay with fluorescently labelled substrate
# RUN_CONDITIONS: substrate Z-Gly-Pro-AMC 50 μM, 32° C., 60 min; some as mean values from multiple independent determinations
pIC50: −log10 of the molar value.
REPORTED_ENDPOINT: pIC50

Illustrative cases are given below, each with its answer.
O=C([C@@H]1CCCc2nn(Cc3nnc(C(F)(F)F)o3)c(=O)n21)N1CC[C@H](F)C1 :: 8.36
O=C(C1CCCc2nn(Cc3ccc(Cl)c(C(F)(F)F)c3)c(=O)n21)N1CCCC1 (racemic) :: 9.08
O=C(C1CCCc2nn(Cc3cc(Cl)cc(Cl)c3)c(=O)n21)N1CCC(F)(F)C1 (racemic) :: 8.76
Cc1ccc(Cn2nc3n(c2=O)C(C(=O)N2CCCC2)C(C)CC3)cc1 (single isomer, unassigned) :: 9.06
O=C([C@@H]1CCCc2nn(CC3CCC(C(F)(F)F)CC3)c(=O)n21)N1CCCC1 (single isomer, unassigned) [Example 186] :: 8.90
Cc1ccc(CCn2nc3n(c2=O)C(C(=O)N2CCCC2)CCC3)cc1 (racemic) :: 8.39
CO[C@H]1CCN(C(=O)[C@@H]2CCCc3nn(Cc4ccc(C)cc4)c(=O)n32)C1 :: 7.30
Cn1nc(Cn2nc3n(c2=O)[C@H](C(=O)N2CC(F)C2)CCC3)c2cccnc21 :: 8.91

a. O=C(C1CCCc2nn(Cc3ccc(Cl)c(Cl)c3)c(=O)n21)N1CCC(F)(F)C1 (racemic)
b. O=C(C1C(C(F)(F)F)CCc2nn(Cc3ncc(Cl)cc3F)c(=O)n21)N1CC(F)C1 (racemic) [Example 308]
Please choose the item with the lower pIC50 value from this pair: a and b # answer = label of selected item
b
(b: 6.90, a: 8.80)

1. O=C([C@@H]1CCCc2nn(CCc3ncc(C(F)(F)F)cc3Cl)c(=O)n21)N1CCC(F)(F)C1
2. Cc1ccc(Cn2nc3n(c2=O)[C@H](C(=O)N2CCC[C@H]2C(=O)CO)CCC3)cc1
In the pair 1 and 2 , the larger recorded pIC50 belongs to which? Write down the label attached to your selection.
2
(2: 9.89, 1: 8.10)

1. O=C([C@@H]1CCCc2nn(Cc3ccc(Cl)nc3)c(=O)n21)N1CC[C@H](F)C1
2. Cn1ccc(Cn2nc3n(c2=O)C(C(=O)N2CCCC2)CCC3)n1 (racemic)
pIC50 comparison. Which is larger, 1 or 2 ? Provide the label of your selected option as the answer.
1
